- target.or.test.system: rat mGluR5 (Rattus norvegicus, UniProt P31424)
- Sequence (P31424 21-1203): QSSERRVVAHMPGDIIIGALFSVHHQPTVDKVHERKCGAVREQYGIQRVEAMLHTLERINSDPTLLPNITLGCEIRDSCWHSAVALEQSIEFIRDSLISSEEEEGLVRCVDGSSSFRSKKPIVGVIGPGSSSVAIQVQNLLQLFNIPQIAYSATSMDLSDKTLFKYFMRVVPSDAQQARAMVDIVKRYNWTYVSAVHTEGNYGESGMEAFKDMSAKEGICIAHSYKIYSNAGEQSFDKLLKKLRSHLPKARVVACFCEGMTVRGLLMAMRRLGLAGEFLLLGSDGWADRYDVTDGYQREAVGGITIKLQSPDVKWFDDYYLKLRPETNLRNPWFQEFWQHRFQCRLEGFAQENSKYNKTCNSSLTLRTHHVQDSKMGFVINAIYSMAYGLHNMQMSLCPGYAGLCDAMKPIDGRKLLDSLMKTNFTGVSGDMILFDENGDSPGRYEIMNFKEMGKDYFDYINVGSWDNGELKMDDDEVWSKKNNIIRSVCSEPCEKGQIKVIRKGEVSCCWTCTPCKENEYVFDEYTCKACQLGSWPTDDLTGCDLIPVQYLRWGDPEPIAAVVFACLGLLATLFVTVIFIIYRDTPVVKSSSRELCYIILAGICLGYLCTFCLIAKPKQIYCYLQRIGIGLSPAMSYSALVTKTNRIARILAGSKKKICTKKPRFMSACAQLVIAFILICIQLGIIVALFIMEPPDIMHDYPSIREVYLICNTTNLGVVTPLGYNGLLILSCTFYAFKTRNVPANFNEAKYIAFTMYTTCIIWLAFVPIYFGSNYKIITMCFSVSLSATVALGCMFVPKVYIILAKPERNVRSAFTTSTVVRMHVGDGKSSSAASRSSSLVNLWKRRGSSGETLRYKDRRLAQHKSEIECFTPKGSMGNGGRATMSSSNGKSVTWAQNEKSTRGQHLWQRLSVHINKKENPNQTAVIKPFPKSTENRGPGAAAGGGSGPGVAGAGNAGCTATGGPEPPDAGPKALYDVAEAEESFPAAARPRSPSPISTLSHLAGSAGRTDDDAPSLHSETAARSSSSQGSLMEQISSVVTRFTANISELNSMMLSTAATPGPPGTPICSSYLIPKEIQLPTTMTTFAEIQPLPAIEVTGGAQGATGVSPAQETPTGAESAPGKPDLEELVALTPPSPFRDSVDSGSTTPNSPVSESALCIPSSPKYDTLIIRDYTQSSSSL
- experiment.description: Calcium fluorescence assay
- Format: cell-based
property: IC50 (nM)

A. Cc1cccc(C#Cc2ccc(-c3cccc(F)c3)c(C#N)c2)n1
B. Cc1cccc(C#Cc2ccc(-c3ccccc3)c(C#N)c2)n1
Of the two listed items, which has the higher IC50? First: A Second: B Output the label that corresponds to your choice. A
(A: 6.1 nM, B: 3.08 nM)
